# Test system: Crude diglycosidase
# TEST NAME: Examination of temperature in the conversion into isoflavone aglycons by diglycosidase using soybean materials
# Format: biochemical, Penicillium multicolor IAM7153
# Design: concentration or dose not given beside the values
# CONDITION LABEL: 55 °C; heat treatment of enzyme: no; 3 h
# Method: Into 400 μL of 20 mM acetate buffer of pH 4.0 was suspended 50 mg of each of various soybean materials (roasted soy flour (manufactured by Fuji Shokuryo K.K.), soymilk (manufactured by Gitoh Shokuhin K.K.), defatted soybean (manufactured by Fuji Seiyu K.K.), concentrated soybean protein (manufactured by Fuji Seiyu K.K.)), whereby a substrate solution was prepared. Crude diglycosidase was diluted with 20 mM acetate buffer of pH 4.0 to be the glycosidase activity of 1.88 AU/mL. […]
REPORTED ENDPOINT: Decomposition efficiency of glycitin family in roasted soy flour (%)

I = COc1cc2c(=O)c(-c3ccc(O)cc3)coc2cc1O[C@@H]1O[C@H](COC(C)=O)[C@@H](O)[C@H](O)[C@H]1O
II = COc1cc2c(=O)c(-c3ccc(O)cc3)coc2cc1O
Query block: Would you mind telling me which has the lower recorded Decomposition efficiency of glycitin family in roasted soy flour between I and II ? Give the label of your selection.
Result block: I

Value source: patent US7118895B2
